The origin of these recorded values is the supplement of paper PMC11451515.

- Test system: P12-Ichikawa
- experiment: AUC of viability dose-response curve (% viability x log10 dose units); higher = less sensitive
- test.parameters: HPLM + 10% dialyzed FBS; 48 h
experimental.endpoint: AUC of viability dose-response curve

Look over these answered cases.
O=C(CS(=O)Cc1ccco1)NC/C=C\COc1cc(CN2CCCCC2)ccn1 (stereo unspecified)    459
O=C1\C=C/C=C2/[C@H]3CNC[C@H](C3)CN12    457
c1ccc2c(Cc3c[nH]c4ccccc34)c[nH]c2c1    434
ClC1=CC=C2N/C3=N/C(=O)CN3CC2=C1Cl    464
OC1=CC=C(C=C1)\C2=C\OC3=C(C(=CC(=C3)O)O)C2=O    466
CC[C@]12CC[C@H]3[C@@H](CCC/4=C/C(=O)CC[C@H]34)[C@@H]1CC[C@@]2(O)C#C    413

Entry N#C/C(=C\c1ccc(O)c(O)c1)C(=O)NCc1ccccc1 has what AUC of viability dose-response curve? 448

Entry CCN1\C=C(\C(O)=O)C(=O)C2=C1N=C(N3CCNCC3)C(=C2)F has what AUC of viability dose-response curve? 430

Entry CCCC(C)(COC(N)=O)COC(=O)NC(C)C (stereo unspecified) has what AUC of viability dose-response curve? 459

Entry C[C@]1(CO)CN(c2cc(C(=O)Nc3ccc4c(c3)-c3c(c(C(N)=O)nn3-c3ccc(F)cc3)CC4)c(Cl)cn2)C[C@@]1(C)CO has what AUC of viability dose-response curve? 418

Entry O=[N+]([O-])c1ncc[nH]1 has what AUC of viability dose-response curve? 418
